pKd: −log10 of the molar value.
Endpoint summary: pKd, system: Receptor-type tyrosine-protein kinase FLT3 (Homo sapiens), multiple sources combined.

Specify the recorded pKd for CC(C)(O)c1cn2c(-c3cccc(N[C@H]4CNCC[C@@H]4F)n3)cnc2cn1 , system: Receptor-type tyrosine-protein kinase FLT3 (Homo sapiens). 9.26

Specify the recorded pKd for CC(C)(C)c1cc(NC(=O)Cc2ccc(-c3cnc(N)cc3F)cc2)on1 , system: Receptor-type tyrosine-protein kinase FLT3 (Homo sapiens). ≥ 9.00

Specify the recorded pKd for O=C(Cc1cccc(C(F)(F)F)c1)Nc1ccc(-c2cnc(NC3CC3)nc2)cn1 , system: Receptor-type tyrosine-protein kinase FLT3 (Homo sapiens). 8.00 to 9.00

Specify the recorded pKd for CCc1cc(Nc2nc(N3CCC(F)(F)CC3)nc3cc(OCCCN4CCCC4)c(OC)cc23)n[nH]1 , system: Receptor-type tyrosine-protein kinase FLT3 (Homo sapiens). > 6.00

Specify the recorded pKd for CC(C)(C)c1cc(NC(=O)Cc2ccc(-c3cnc(NCCN4CCOCC4)nc3)cc2)no1 , system: Receptor-type tyrosine-protein kinase FLT3 (Homo sapiens). ≥ 9.00

Specify the recorded pKd for COc1cc(-c2cnc(N)nc2)ccc1NC(=O)Nc1cc(C(C)(C)C)on1 , system: Receptor-type tyrosine-protein kinase FLT3 (Homo sapiens). 8.00 to 9.00
